Target: UniProt P42226
Test: Fluorescence polarization (FP) binding assay, STAT6
Details: FP competition, 5 nM fluorescein-labeled tracer, 200 nM protein, PBS pH7.4; read-out: Binding STAT6
pKi: −log10 of the molar value.
property: pKi

CC(C)(C)[C@H](NC(=O)c1cc2cc(C(F)(F)P(=O)(O)O)ccc2s1)C(=O)N1CCC[C@H]1C(=O)N1CCOC(c2ccccn2)C1 (stereo partly shown) [Compound 140]: 6.00 to 7.00

What value of measured pKi is listed for CC(C)(C)[C@H](NC(=O)c1cc2cc(C(F)(F)P(=O)(O)O)ccc2s1)C(=O)N1CCC[C@H]1C(=O)N1CCOC(c2ccncc2)C1 (stereo partly shown) [Compound 131] ? 5.00 to 6.00

// returns reported pKi for input CC(=O)N1CC[C@H]2CC[C@@H](C(=O)N3CCOCC3)N2C(=O)[C@@H](NC(=O)c2cc3cc(C(F)(F)P(=O)(O)O)ccc3[nH]2)C1 [Compound 367] < 5.00

Sample CC(=O)N1CC[C@H]2CC[C@@H](C(=O)N(c3ccc(Cl)cc3)C3CCCCC3)N2C(=O)[C@@H](NC(=O)c2cc3cc(C(F)(F)P(=O)(O)O)ccc3[nH]2)C1 [Compound 371] — what was its pKi? < 5.00

# input compound: CC(=O)N1CC[C@H]2CC[C@@H](C(=O)N3CCC(C)(C4CC4)C3)N2C(=O)[C@@H](NC(=O)c2cc3cc(C(F)(F)P(=O)(O)O)ccc3s2)C1 (stereo partly shown) [Compound 395] ; wanted: its pKi < 5.00

Would you kindly share the measured pKi for O=C(N[C@@H](CC1CCN(CCc2ccccc2)CC1)C(=O)N1CCC[C@H]1C(=O)N1CCO[C@H](c2ccccc2)C1)c1cc2cc(C(F)(F)P(=O)(O)O)ccc2s1 [Compound 296] ? 6.00 to 7.00

###

Sequence of the target: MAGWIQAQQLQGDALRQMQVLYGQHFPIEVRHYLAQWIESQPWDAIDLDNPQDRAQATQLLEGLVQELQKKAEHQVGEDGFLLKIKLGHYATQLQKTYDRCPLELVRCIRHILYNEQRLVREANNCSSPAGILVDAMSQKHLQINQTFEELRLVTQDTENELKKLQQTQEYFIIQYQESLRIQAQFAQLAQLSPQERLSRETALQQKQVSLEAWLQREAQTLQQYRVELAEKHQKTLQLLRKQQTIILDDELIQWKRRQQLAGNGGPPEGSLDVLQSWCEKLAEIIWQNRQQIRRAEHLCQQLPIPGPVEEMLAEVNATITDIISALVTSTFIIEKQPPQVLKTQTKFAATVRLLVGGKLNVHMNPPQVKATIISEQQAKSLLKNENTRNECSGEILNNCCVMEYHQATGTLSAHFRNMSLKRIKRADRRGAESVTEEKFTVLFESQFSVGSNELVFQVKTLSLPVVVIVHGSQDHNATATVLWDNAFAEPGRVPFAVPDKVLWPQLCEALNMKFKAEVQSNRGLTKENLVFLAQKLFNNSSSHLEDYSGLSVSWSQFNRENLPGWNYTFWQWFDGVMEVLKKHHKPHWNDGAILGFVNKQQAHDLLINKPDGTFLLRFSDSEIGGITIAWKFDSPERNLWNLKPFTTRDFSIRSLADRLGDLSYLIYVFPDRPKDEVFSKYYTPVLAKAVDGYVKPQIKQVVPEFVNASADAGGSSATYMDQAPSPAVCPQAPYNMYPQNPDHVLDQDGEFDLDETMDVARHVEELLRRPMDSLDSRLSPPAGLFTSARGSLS
property: Ki

For orientation, consider the following solved cases.
CC(C)(C)[C@H](NC(=O)c1cc2cc(C(F)(F)P(=O)(O)O)ccc2s1)C(=O)N1CCC[C@H]1C(=O)N1CCCC12CCCC2 [Compound 58]: > 10 µM
CC(C)(C)[C@H](NC(=O)c1cc2cc(C(F)(F)P(=O)(O)O)ccc2[nH]1)C(=O)N1CCC[C@H]1C(=O)Nc1ncc(-c2ccccc2)s1 [Compound 31]: 0.1 to 1 µM
CC(C)(C)[C@H](NC(=O)c1cc2cc(C(F)(F)P(=O)(O)O)ccc2s1)C(=O)N1CCC[C@H]1C(=O)N1CCS(=O)(=O)[C@H](c2ccccc2)C1 [Compound 135]: 1 to 10 µM
CC(C)(C)[C@H](NC(=O)c1cc2cc(C(F)(F)P(=O)(O)O)ccc2s1)C(=O)N1Cc2ccccc2[C@H]1C(=O)N1CCO[C@H](c2ccccc2)C1 [Compound 195]: 1 to 10 µM
CC(=O)NC(C)(C)[C@H](NC(=O)c1cc2cc(C(F)(F)P(=O)(O)O)ccc2s1)C(=O)N1CCC[C@H]1C(=O)N1CCO[C@H](c2ccccc2)C1 [Compound 122]: > 10 µM

# context switch: different molecule, same Ki
State the recorded Ki for this entry: CC(=O)N1CCN(C(=O)[C@@H]2CCCN2C(=O)[C@@H](NC(=O)c2cc3cc(C(F)(F)P(=O)(O)O)ccc3s2)C(C)(C)C)C[C@@H]1c1ccccc1 [Compound 167] > 10 µM

###

Biological target: STAT5A (Homo sapiens, UniProt P42229)
Experiment: Fluorescence polarization (FP) binding assay, STAT5A
Conditions: FP competition, 5 nM fluorescein-labeled tracer, 200 nM protein, PBS pH7.4
The following compounds are shown together with reported Ki values.

Need Ki of CC(C)(C)[C@H](NC(=O)c1cc2cc(C(F)(F)P(=O)(O)O)ccc2s1)C(=O)N1CCCCC[C@H]1C(=O)N1CC[C@@H](c2ccccc2)C1 , thanks. 1 to 10 µM

Query (compound): CCOC(=O)CO[C@@H]1C[C@@H](C(=O)Nc2ncc(-c3ccccc3)s2)N(C(=O)[C@@H](NC(=O)c2cc3cc(C(F)(F)P(=O)(O)O)ccc3s2)C(C)(C)C)C1 ; field requested: Ki 0.1 to 1 µM

Query (compound): CC(C)(C)[C@H](NC(=O)c1cc2cc(C(F)(F)P(=O)(O)O)ccc2s1)C(=O)N1CCC[C@H]1C(=O)N(c1ccc(I)cc1)c1ccc(C(=O)OCc2ccccc2)cc1 ; field requested: Ki 1 to 10 µM

Suppose we examine the compound CC(C)(C)[C@H](NC(=O)c1cc2cc(C(F)(F)P(=O)(O)O)ccc2s1)C(=O)N1CCC[C@H]1C(=O)N1CCOC(c2cccs2)C1 (stereo partly shown) ; what Ki value has been reported? 1 to 10 µM

Suppose we examine the compound C#CC[C@H](NC(=O)c1cc2cc(C(F)(F)P(=O)(O)O)ccc2s1)C(=O)N1CCC[C@H]1C(=O)N1CCO[C@@H](c2ccccc2)C1 ; what Ki value has been reported? > 10 µM

Which Ki value belongs to O=C(NC1(C(=O)N2CCC[C@H]2C(=O)N2CCO[C@@H](c3ccccc3)C2)CCC1)c1cc2cc(C(F)(F)P(=O)(O)O)ccc2s1 ? > 10 µM

Give the measured Ki of CC(C)(C)[C@H](NC(=O)c1cc2cc(C(F)(F)P(=O)(O)O)ccc2s1)C(=O)N1CCC[C@H]1C(=O)Nc1ncc(-c2ccc(F)cc2)s1 . 1 to 10 µM

May I ask what Ki has been recorded for CC(=O)N1CCN(C(=O)[C@@H](NC(=O)c2cc3cc(C(F)(F)P(=O)(O)O)ccc3s2)C(C)(C)C)[C@H](C(=O)N2CCO[C@H](c3ccccc3)C2)C1 ? 1 to 10 µM

Entry under review: CC(C)(C)[C@H](NC(=O)c1cc2cc(C(F)(F)P(=O)(O)O)ccc2s1)C(=O)N1CCC[C@H]1C(=O)N1CCOC(c2cccc3ccccc23)C1 (stereo partly shown) . Reported Ki? 1 to 10 µM

Returns the measured Ki for the input compound. Input: CCO[C@@H]1CCN(C(=O)[C@@H](NC(=O)c2cc3cc(C(F)(F)P(=O)(O)O)ccc3s2)C(C)(C)C)[C@@H]1C(=O)N1CCO[C@H](c2ccccc2)C1 1 to 10 µM

Looking for the measured Ki of CCCCC(=O)N1CC[C@H]2CCN(C(=O)[C@@H]3CCCN3C(=O)[C@@H](NC(=O)c3cc4cc(C(F)(F)P(=O)(O)O)ccc4s3)C(C)(C)C)[C@H]2C1 , can you help? > 10 µM

Tell me the measured Ki of CC(C)(C)[C@H](NC(=O)c1cc2cc(C(F)(F)P(=O)(O)O)ccc2s1)C(=O)N1CCC[C@H]1C(=O)N1CCN(S(C)(=O)=O)[C@H](c2ccccc2)C1 , please. > 10 µM

Which Ki is listed for CNC(=O)CCN(C(=O)[C@@H]1CCCN1C(=O)[C@@H](NC(=O)c1cc2cc(C(F)(F)P(=O)(O)O)ccc2s1)C(C)(C)C)c1ccc(Br)cc1 ? 1 to 10 µM

###

Target: STAT6 protein (Homo sapiens, UniProt P42226)
Sequence (P42226 whole entry): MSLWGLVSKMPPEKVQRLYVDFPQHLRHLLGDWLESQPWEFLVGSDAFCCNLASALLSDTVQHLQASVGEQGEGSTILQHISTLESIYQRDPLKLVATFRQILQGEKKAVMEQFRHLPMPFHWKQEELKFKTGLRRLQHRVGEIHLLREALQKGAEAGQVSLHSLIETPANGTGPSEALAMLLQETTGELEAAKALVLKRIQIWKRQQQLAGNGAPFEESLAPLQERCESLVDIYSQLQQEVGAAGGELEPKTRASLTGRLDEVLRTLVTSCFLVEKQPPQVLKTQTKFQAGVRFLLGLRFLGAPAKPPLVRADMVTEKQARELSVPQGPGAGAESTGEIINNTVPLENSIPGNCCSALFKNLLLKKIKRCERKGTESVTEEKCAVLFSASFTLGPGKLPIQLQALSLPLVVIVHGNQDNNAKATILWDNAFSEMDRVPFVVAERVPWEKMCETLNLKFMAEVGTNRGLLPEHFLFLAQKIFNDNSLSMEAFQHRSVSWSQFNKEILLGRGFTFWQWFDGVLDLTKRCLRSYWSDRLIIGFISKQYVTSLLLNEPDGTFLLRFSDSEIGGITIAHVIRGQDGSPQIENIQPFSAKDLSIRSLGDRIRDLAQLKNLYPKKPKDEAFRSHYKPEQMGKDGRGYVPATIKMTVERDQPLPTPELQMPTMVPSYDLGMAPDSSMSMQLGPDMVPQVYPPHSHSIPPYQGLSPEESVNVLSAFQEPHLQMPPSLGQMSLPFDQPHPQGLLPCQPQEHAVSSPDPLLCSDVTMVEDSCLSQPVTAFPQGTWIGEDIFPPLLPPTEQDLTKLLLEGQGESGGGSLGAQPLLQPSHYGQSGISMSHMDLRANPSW
Assay: Fluorescence polarization (FP) binding assay, STAT6
Conditions: FP competition, 5 nM fluorescein-labeled tracer, 200 nM protein, PBS pH7.4; read-out: Binding STAT6
Below, each of the compounds is paired with its reported Ki value.

CC(C)(C)[C@H](NC(=O)c1cc2cc(C(F)(F)P(=O)(O)O)ccc2s1)C(=O)N1Cc2ccccc2C[C@H]1C(=O)N1CCCC(c2ccc(Cl)cc2)C1 (some centres unmarked): 0.1 to 1 µM
CC(C)(C)[C@H](NC(=O)/C=C/c1ccc(C(F)(F)P(=O)(O)O)cc1)C(=O)N1CCC[C@H]1c1nc(-c2ccccc2)cs1: > 10 µM

Requested field: Ki. Item: CC(C)(C)[C@H](NC(=O)c1cc2cc(C(F)(F)P(=O)(O)O)ccc2s1)C(=O)N1C[C@H](OCc2ccccc2)C[C@H]1C(=O)Nc1ncc(-c2ccccc2)s1 1 to 10 µM

Which Ki reading was recorded for the compound CC(C)(C)[C@H](NC(=O)/C=C/c1ccc(C(F)(F)P(=O)(O)O)cc1)C(=O)N1CCC[C@H]1c1ncc(-c2ccccc2)s1 ? > 10 µM

Reference for the values: patent US20230295200A1
